Entry source: PubChem BioAssay (NCI)

# Tested on: OVCAR-8 ovarian
# experimental details: NCI-60 one-dose screen, 48 h (100 = growth as untreated, 0 = no growth, -100 = all killed)
# study conditions: 10 µM unless noted
This is part of a sample that, as a whole, favours compounds with a hit. Of some 83,000 tested, about 20% had one in any assay.
Class boundaries, taken from values of growth, are as follows: lo (below 30%), mid (30% to below 80%), hi (80% or more)

1) COc1ccc(/C(C)=C(\c2ccc(OCCN3CCCCCC3)cc2)c2ccc(OC(=O)c3ccccc3)cc2)cc1    mid
2) COc1ccc(NC(=O)c2cccc(C3CCc4c(cc(OC)c(OC)c4OC)O3)c2)cc1 (centres undefined)    mid
3) CCCCn1sc(=O)n(Cc2ccc(CNC(=O)OCc3ccc4c(Br)cc(Br)c(O)c4n3)cc2)c1=O    lo
4) N=C(N)c1ccc(-c2ccc(-c3ccc(Cl)cc3)o2)o1    lo
5) CCNC(=O)Oc1ccc(/C(=C(/C)Cc2ccc(OC)cc2)c2ccc(OCCN3CCCCCC3)cc2)cc1    mid
6) COc1ccc(-c2oc(=O)ccc2-c2cc(OC)c(OC)c(OC)c2)cc1O    lo
7) O=C(c1ccc(Cl)cc1Cl)N1c2ccccc2Sc2ccccc21    mid
8) Cn1c(O)c(C(/C=C/c2ccccc2)=Nc2ccccc2N)c(=O)n(C)c1=O    hi
9) CCN(CC)CCCC(C)Nc1ccc2cc(OC)ccc2n1 (centres undefined)    hi
10) CN1CCN(CCOc2ccc(-c3cnc4c(-c5ccc(C(F)(F)F)cc5)cnn4c3)cc2)CC1    lo
11) COc1ccc2[nH]cc(-c3nc(-c4cn(C)c5ccncc45)cs3)c2c1    lo
12) CCN1C(=O)N(CC)C2C1NN=c1s/c(=C3\C(=O)N(CCc4ccccc4)c4ccccc43)c(=O)n12 (centres undefined)    lo
13) N/C(=N\c1nc2ccccc2s1)NC(=NC1CCCCC1)NC1CCCCC1    lo
14) CCOC(=O)Cn1c(=O)c2c3ccccc3n(C)c2n2nnc(-c3ccccc3)c12    hi
15) CCN(C(=O)N1CCN(c2cc3c(cc2F)c(=O)c(C(=O)O)cn3C2CC2)CC1)c1nc(-c2ccc(C)cc2)cs1    lo
16) NC(CSC(c1ccccc1)(c1ccccc1)c1ccc2c(c1)OCO2)C(=O)O (centres undefined)    lo
17) CN1CCN(c2ccc(NC(=O)c3cncnc3Nc3ccc4c(ccn4Cc4cccc(F)c4)c3)cc2)CC1    mid
18) C=CC(=O)NCCOc1cccc(Nc2cc(NCCCNC(=O)C3CCC3)c(Br)cn2)c1    lo
19) COc1ccc(/C=C/C(=O)c2ccc(Nc3nc(Nc4ccc(F)cc4)nc(Nc4ccc(Cl)cc4)n3)cc2)cc1    hi
20) CCc1cccc(Sc2cc(C(=O)N3Cc4ccc(OCCN(C)C)cc4C3)ccc2O)c1    lo
21) COc1ccc(Cc2nnc(Nc3nc4ccccc4s3)s2)cc1    hi
22) CCOC(=O)c1n[nH]n2c1nc(=O)c1cnn(C)c12    hi
23) COc1cc(Nc2ncccc2NC(=O)c2cn(Cc3cccc(Oc4ccccc4)c3)nn2)cc(OC)c1    hi
24) CCCCCn1sc(=O)n(Cc2ccc(CNC(=O)OCc3ccc4c(Cl)cc(Cl)c(O)c4n3)cc2)c1=O    mid
25) CC1(C)CC2=C3C=C[C@@H]4[C@@]5(C)CC[C@H](O)C(C)(C)[C@@H]5CC[C@@]4(C)[C@]3(C)CC[C@@]2(C(=O)O)CC1=O    mid
26) CN1CCN(CCCOc2ccc3ncnc(Nc4ccc(Oc5cccc(F)c5)c(Cl)c4)c3c2)CC1    mid
27) CCC(CC)(N(CC(=O)O)CC(=O)O)C(CC)(CC)N(CC(=O)O)CC(=O)O    hi
28) C/C(C=O)=C\c1ccc2c(c1)OCO2    hi
29) CCOC(=O)c1c(C)nn(CC(O)c2ccccc2)c1NC(=O)Nc1cccc(F)c1 (centres undefined)    hi
30) Clc1nn2c(Cn3cnc4c(NCc5ccccc5)ncnc43)nnc2c2ccccc12    mid
31) O=C1/C(=C/c2cccc([N+](=O)[O-])c2)COc2ccc(O)cc21    mid
32) Cc1cc(C)c(-c2c(O)c(Br)c(-c3c(C)cc(C)c(Br)c3C)c(O)c2Br)c(C)c1Br    lo
33) CN(C)Cc1ccc(C(=O)Nc2ccc3ncnc(Nc4ccc(Oc5cccc(F)c5)c(Cl)c4)c3c2)cc1    lo
34) O=c1nc(Nc2nc3ccccc3s2)[nH]c(=O)c2ccccc12    hi
35) N#C/C(=C\c1ccc(Br)cc1)c1cc2ccccc2[nH]1    hi
36) NC(=S)N/N=C/c1cn(-c2ccccc2)nc1-c1cc2ccccc2oc1=O    mid
37) CCCCCCCC/C=C\CCCCCCCCOc1ccc(CC(=O)NCC[N+](C)(C)C)cc1    mid
